assay.remarks: Glutathione reactivity in pH 7.4 deuterated phosphate buffer assessed as reaction half life at 10 mg up to 24 hrs in presence of 1.5 to 2 equiv of GSH by 1H NMR analysis
Format: physicochemical
details: pH 7.4, 24 h
reported.endpoint: t1/2

[ask] Looking for the measured t1/2 of CC1(C)O[C@@H]2[C@H]3CC[C@H]4[C@@]56CO[C@@](O1)([C@@H](O)[C@@H]5C(C)(C)CC[C@@H]6O)[C@@]24C(=O)C31CN1 (stereo partly specified) , can you help?
[reply] 4 to 6 h
